Form field: growth (one value per entry).
- Test system: UACC-62 melanoma
- Method notes: NCI-60 one-dose screen, 48 h (100 = growth as untreated, 0 = no growth, -100 = all killed)
- Condition notes: 10 µM
About 83,000 compounds went through this panel and 20% of them were active in at least one assay; those are over-represented in the sample as a whole. The source made the active and inactive calls. Rule for the calls: active = growth percent below 10; inactive = the rest.

Molecule: CCOC(=O)c1cc2c(n1Cc1cccc(OC)c1)-c1oncc1CC2
growth: 30.8% (inactive)
//
Molecule: COc1cc(/C=C/C(=O)c2cc(-c3ccc(F)cc3)ccc2O)cc(OC)c1OC
growth: 58.5% (inactive)
//
Molecule: OC(CNC1CCCC1)Cn1c2ccccc2c2ccccc21 (stereo unspecified)
growth: -50.9% (active)
//
Molecule: CN(C)Cc1cccs1
growth: 95.4% (inactive)

Entry under test: `COc1ccc(-n2nnc3c(sc4ccccc43)c2=O)cc1` . Its growth was 93.9% (inactive)

Entry `O=[N+]([O-])c1ccc2c(c1)Cc1cc(I)ccc1-2` , growth reported as 108% (inactive)
